Experiment: solvent given as SMILES
Settings: in ClCCl
The following molecules are listed with their measured fluorescence lifetime values.
Write down the numeric answer in ns and omit the unit.

Consider the worked cases shown below.
CCOC(=O)/N=c1/oc2c(OC)cccc2cc1C#N	0.3
c1ccc2c(-c3ccc4sc5ccc(-c6c7ccccc7cc7ccccc67)cc5c4c3)c3ccccc3cc2c1	4.7
COc1ccc(C#Cc2ccc(C#Cc3ccc(P(=O)(c4ccc(C#Cc5ccc(C#Cc6ccc(OC)cc6)cc5)cc4)c4ccc(C#Cc5ccc(C#Cc6ccc(OC)cc6)cc5)cc4)cc3)cc2)cc1	0.85
CN(C)c1ccc(-c2c(/C=C3/C=Cc4ccccc4N3C)c(=O)c2=O)cc1	0.15
CC(C)(C)c1ccc2c(c1)sc1[n+]2[B-](F)(F)n2c(c3cccc4cccc2c43)=C1C#N	6

Value of measured fluorescence lifetime for the entry "O=Cc1cnc(-c2c3ccccc3cc3ccccc23)nc1" : 6.3

Value of measured fluorescence lifetime for the entry "CN(c1ccccc1)c1ccc(N(c2ccccc2)c2ccc3ccc4c(N(c5ccccc5)c5ccc(N(C)c6ccccc6)cc5)ccc5ccc2c3c54)cc1" : 1.1

Value of measured fluorescence lifetime for the entry "CCCCn1c(-c2ccc(-c3nnc(-c4ccc5ccccc5c4)o3)cc2)nc(-c2ccccc2)c1-c1ccccc1" : 1.74

Value of measured fluorescence lifetime for the entry "CCc1c(C)c2n(c1C)[B-](F)(F)[N+]1=C(c3ccc[nH]3)c3ccccc3C1=C2" : 6.41

Value of measured fluorescence lifetime for the entry "CCCCCCN(CCCCCC)c1ccc(C#Cc2ccc(C(F)(F)F)cc2)cc1" : 2.1

Value of measured fluorescence lifetime for the entry "O=C(O)c1ccc2ccc3cccc4ccc1c2c34" : 5.12

Value of measured fluorescence lifetime for the entry "CCCCn1c(-c2ccc(-c3nnc(-c4ccc(-c5nc6c7ccccc7c7ccccc7c6n5CCCC)cc4)o3)cc2)nc2c3ccccc3c3ccccc3c21" : 1.64

Value of measured fluorescence lifetime for the entry "CCN(CC)c1ccc(C=Cc2nc3nc4ccccc4nc3s2)cc1" : 1.62

Value of measured fluorescence lifetime for the entry "CC1(C)c2ccccc2N(c2ccc(-c3n[n+]4c(o3)-c3ccccc3O[B-]4(F)F)cc2)c2ccccc21" : 22

Value of measured fluorescence lifetime for the entry "CCN(CC)c1ccc(/N=N/c2nc3ccc(OC)cc3s2)cc1" : 3.13

Value of measured fluorescence lifetime for the entry "CCN(CC)c1ccc2cc(-c3nc4c5cccc6ccc7cccc(c7c65)c4n3-c3ccc(C(C)(C)C)cc3)c(=O)oc2c1" : 11.4

Value of measured fluorescence lifetime for the entry "[O-][n+]1c(/C=C/c2ccccc2)nc(N2CCOCC2)c2c1CCCC2" : 9.2

Value of measured fluorescence lifetime for the entry "F[B-]1(F)OC(C#Cc2ccccc2)=C2CCc3ccccc3C2=[O+]1" : 2.79

---

Assay: solvent given as SMILES
Conditions: in ClCCl
experimentalEndpoint: fluorescence lifetime (ns)
Write down the numeric answer in ns and omit the unit.

Consider the worked cases shown below.
COc1ccc(-c2ccc(-c3ccc(C#N)s3)s2)cc1	0.74
CCCn1c2cccc3oc4cccc5c4[c+](c32)c2c1cccc2n5CCC	20.6

Value of measured fluorescence lifetime for the entry "C(=C\c1cc(-c2ccccc2)c(/C=C/c2ccc(N(c3ccccc3)c3ccccc3)cc2)cc1-c1ccccc1)/c1ccc(N(c2ccccc2)c2ccccc2)cc1" : 1.29

Value of measured fluorescence lifetime for the entry "CC1(C)c2ccccc2N(c2ccc(-c3cc(-c4ccccc4)nc(-c4ccccc4)n3)cc2)c2ccccc21" : 25

Value of measured fluorescence lifetime for the entry "Oc1ccccc1-c1nc2c(c3c1-c1ccccc1CC3)-c1ccccc1CC2" : 2.75

Value of measured fluorescence lifetime for the entry "CCN(CC)c1ccc2c(c1)oc(=O)c1cc3c(-c4ccccc4)nn(C)c3nc12" : 18.9

Value of measured fluorescence lifetime for the entry "COc1ccc(-c2c3cc4ccccc4cc3c(C#Cc3ccccc3)c3cc4cc(C)sc4cc23)cc1" : 11.6

Value of measured fluorescence lifetime for the entry "CCc1c(C)[nH]c(C2=[N+]3C(=Cc4c(C)cc(C)n4[B-]3(F)F)c3ccccc32)c1C" : 4.93

Value of measured fluorescence lifetime for the entry "C[Si]1(C)c2ccc(-c3ccc(-c4cccs4)s3)cc2C=Cc2cc(-c3ccc(-c4cccs4)s3)ccc21" : 0.47

Value of measured fluorescence lifetime for the entry "CCCCCCOc1cc(/C=C/c2cc(OCCCCCC)c(/C=C/c3cc(OCCCCCC)c(C=C4C(=O)c5ccccc5C4=O)cc3OCCCCCC)cc2OCCCCCC)c(OCCCCCC)cc1C=C1C(=O)c2ccccc2C1=O" : 1.22

Value of measured fluorescence lifetime for the entry "O=[N+]([O-])c1ccc([N+]2=Cc3ccc4ccccc4c3O[B-]2(F)F)cc1" : 7.6

Value of measured fluorescence lifetime for the entry "CCOC(=O)COc1ccc(/C=C/c2cc(C)c3n2[B-](F)(F)[N+]2=C(c4[nH]c(C)cc4C)c4ccccc4C2=C3)cc1" : 5.14

---

Assay: solvent given as SMILES
Conditions: in CS(C)=O
experimentalEndpoint: fluorescence lifetime (ns)
Write down the numeric answer in ns and omit the unit.

Consider the worked cases shown below.
CN1CCN(c2ccc3c4c(cccc24)C(=O)c2ccccc2-3)CC1	8.5
O=C(O)COc1ccc2[nH]c3c(c2c1)CCCC3=O	2.34

Value of measured fluorescence lifetime for the entry "C#CCN1C(=O)/C(=C/c2cc(OC(C)C)ccc2OC(C)C)N=C1C" : 3.03

Value of measured fluorescence lifetime for the entry "c1ccc(-c2cc(-c3ccc(-c4nc(-c5ccccn5)c(-c5ccccn5)[nH]4)cc3)cc(-c3ccccn3)n2)nc1" : 2.04

Value of measured fluorescence lifetime for the entry "CCCCCCCCN1c2ccc(C#Cc3ccc(OC)cc3)cc2Sc2cc(C=O)ccc21" : 6.6

Value of measured fluorescence lifetime for the entry "COc1ccc(C#Cc2ccc(C#N)cc2)cc1OC" : 2.51

---

The following compounds are listed with their measured fluorescence lifetime values.
Test: solvent given as SMILES
Conditions: in CN(C)C=O
Write down the numeric answer in ns and omit the unit.

Consider the worked cases shown below.
COC(=O)c1ccc(C#Cc2ccc(N(C)C)cc2)cc1	1.7
CCN(CC)c1ccc2nc3c4ccccc4c(=O)cc-3oc2c1	4.35
CCCCCCCCC1(CCCCCCCC)c2cc(-c3ccc([N+](=O)[O-])cc3)ccc2-c2ccc(-c3ccc([N+](=O)[O-])cc3)cc21	1.92
CCCCCCOc1ccc(N(c2ccc(OCCCCCC)cc2)c2ccc(-c3sc(-c4ccc(N(c5ccc(OCCCCCC)cc5)c5ccc(OCCCCCC)cc5)cc4)c4nc(-c5ccc(C(=O)OC)cc5)c(-c5ccc(C(=O)OC)cc5)nc34)cc2)cc1	0.61
c1ccc(-c2nn(-c3ccccc3)c3nc4ccc(-n5c6ccccc6c6ccccc65)cc4cc23)cc1	20.2
CCCCCCCCCCCCCCCCCCN1C(=O)c2ccc3c4ccc5c6c(ccc(c7ccc(c2c37)C1=O)c64)C(=O)NC5=O	3
C#CCNC1=C2C=CC=[N+]2[B-](F)(F)n2cccc21	2.98

Value of measured fluorescence lifetime for the entry "CN1CCN(c2ccc3c4c(cccc24)C(=O)c2ccccc2-3)CC1" : 8.27

---

Assay: solvent given as SMILES
Details: in CC#N
experimentalEndpoint: fluorescence lifetime (ns)
Write down the numeric answer in ns and omit the unit.

Consider the worked cases shown below.
C1=Cc2ccccc2Cc2ccccc21	3.72
COc1cc(N(c2ccc(C=C(C#N)C#N)c(OC)c2)c2ccc(C=C(C#N)C#N)c(OC)c2)ccc1C=C(C#N)C#N	0.14
Nc1ccccc1C(=O)O	6.9
O=C(O)c1c2ccccc2nc2ccccc12	0.8
CC1=N/C(=C\c2cc(N(C)C)ccc2C#N)C(=O)N1C	7

Value of measured fluorescence lifetime for the entry "CCN(CC)c1ccc2c(-c3ccc(S(=O)(=O)[O-])cc3S(=O)(=O)[O-])c3ccc(=[N+](CC)CC)cc-3oc2c1" : 2.46

Value of measured fluorescence lifetime for the entry "CCn1c(=O)nc2n(C)c3cc(C)ccc3nc-2c1=O" : 7

Value of measured fluorescence lifetime for the entry "Nc1cccnc1" : 4.6

Value of measured fluorescence lifetime for the entry "O=C(O)c1ccccc1-c1nc(-c2ccccc2)c2ccccn12" : 5.5

Value of measured fluorescence lifetime for the entry "COc1ccc(/C=C/C2=[O+][B-](F)(F)OC(/C=C/c3ccc(OC)cc3)=C2c2ccccc2)cc1" : 1.5

Value of measured fluorescence lifetime for the entry "COC(=O)CC1(C(=O)O)Oc2c(c(C(C)=O)c3c(c2C(C)=O)OCO3)O1" : 20

---

Experiment: solvent given as SMILES
Details: in CO
experimentalEndpoint: log10 fluorescence lifetime (log10 of the value in ns)
Field: value | Transform: log10 | Quantity: fluorescence lifetime | Unit: ns

Consider the worked cases shown below.
CSc1sc(C(N)=O)c2nnn(C)c(=O)c12	1.04
c1ccc(-c2cc(-c3ccc4ccc5cccc6ccc3c4c56)ccn2)nc1	0.49
CCN(CC)c1ccc2c(c1)OC1=CC(N(CC)CC)C=CC1[C+]2c1ccccc1C(=O)O (stereo not given)	0.33
c1ccc2cc(-n3cnc4ccccc43)ccc2c1	0.71

Value of measured log10 fluorescence lifetime for the entry CC(C)(C)OC(=O)NC(Cc1ccc2oc(-c3ccccn3)nc2c1)C(=O)O (stereo not given) : 0.08

Value of measured log10 fluorescence lifetime for the entry "c1ccc2c(c1)cc(-c1cc(-c3nccs3)nc(-c3nccs3)c1)c1ccccc12" : 0.25

Value of measured log10 fluorescence lifetime for the entry "CCC1=C(C)C2=C(C)c3c(I)c(I)c(I)n3[B-](F)(F)[N+]2=C1C" : -0.67

Value of measured log10 fluorescence lifetime for the entry "COc1cc(N(c2ccc(C=C(C#N)C#N)c(OC)c2)c2ccc(C=C(C#N)C#N)c(OC)c2)ccc1C=C(C#N)C#N" : -0.92

Value of measured log10 fluorescence lifetime for the entry "COc1ccc2c(=O)c3c([nH]c2c1)-c1cc(Cl)ccc1NC3(C)C" : 0.96
